- target.or.test.system: MMP-7FL (full-length matrilysin) (Homo sapiens)
- protocol.description: Thiopeptolide hydrolysis assay, MMP-7FL
- Type: biochemical
- experimental.setup: Table 2; thiopeptolide substrate, HEPES pH 7.0; read-out: IC50 (μM) Versus Certain MMPs: MMP07 (FL)
// reported IC50 per item

Inquiry: Suppose we examine the molecule `COc1ccc(CNC(=O)c2ccc3c(c2)S(=O)(=O)N(Cc2ccc(CC(=O)O)cc2)C(=O)N3C)cc1` ; what IC50 value has been reported?
Reply text: 82 µM

Inquiry: How about `CN1C(=O)N(Cc2ccccc2)S(=O)(=O)c2cc(C(=O)NCc3ccc(F)cc3)ccc21` ?
Reply text: > 30 µM

* * *

- target.or.test.system: MMP-13CD (catalytic domain of collagenase 3) (Homo sapiens, UniProt P45452)
- protocol.description: Thiopeptolide hydrolysis assay, MMP-13CD
- Format: biochemical
- experimental.setup: Table 2; thiopeptolide substrate, HEPES pH 7.0; read-out: IC50 (μM) Versus Certain MMPs: MMP13 (CD)
recorded.endpoint: IC50 (µM)

Worked cases, IC50 given:
compound: COc1ccc(CNC(=O)c2ccc3c(c2)S(=O)(=O)N(Cc2ccc4ccccc4c2)C(=O)N3C)cc1 [Example 22]
target.or.test.system: MMP-13CD (catalytic domain of collagenase 3) (Homo sapiens, UniProt P45452)
unit.abbreviation: µM
number: 0.62
//
compound: COc1ccc(CNC(=O)c2ccc3c(c2)S(=O)(=O)N(Cc2ccc4nonc4c2)C(=O)N3C)cc1 [Example 45]
target.or.test.system: MMP-13CD (catalytic domain of collagenase 3) (Homo sapiens, UniProt P45452)
unit.abbreviation: µM
number: 0.7
//
compound: COc1ccc(CNC(=O)c2ccc3c(c2)S(=O)(=O)N(Cc2ccc(S(C)(=O)=O)cc2)C(=O)N3C)cc1 [Example 15]
target.or.test.system: MMP-13CD (catalytic domain of collagenase 3) (Homo sapiens, UniProt P45452)
unit.abbreviation: µM
number: 11
//
compound: COc1ccc(CNC(=O)c2ccc3c(c2)S(=O)(=O)N(CCS(=O)(=O)c2ccc(C)cc2)C(=O)N3C)cc1 [Example 42]
target.or.test.system: MMP-13CD (catalytic domain of collagenase 3) (Homo sapiens, UniProt P45452)
unit.abbreviation: µM
number: 100
//
compound: COc1ccc(CNC(=O)c2ccc3c(c2)S(=O)(=O)N(Cc2ccc(-c4nn[nH]n4)cc2)C(=O)N3C)cc1 [Example 32]
target.or.test.system: MMP-13CD (catalytic domain of collagenase 3) (Homo sapiens, UniProt P45452)
unit.abbreviation: µM
number: 0.0062
//
compound: COc1ccc(CNC(=O)c2ccc3c(c2)S(=O)(=O)N(Cc2cscn2)C(=O)N3C)cc1 [Example 47]
target.or.test.system: MMP-13CD (catalytic domain of collagenase 3) (Homo sapiens, UniProt P45452)
unit.abbreviation: µM
number: 13
//
compound: COc1ccc(CNC(=O)c2ccc3c(c2)S(=O)(=O)N(CC=C(C)C)C(=O)N3C)cc1 [Example 41]
target.or.test.system: MMP-13CD (catalytic domain of collagenase 3) (Homo sapiens, UniProt P45452)
unit.abbreviation: µM
number: 1.9
//
compound: CN1C(=O)N(Cc2ccccc2)S(=O)(=O)c2cc(C(=O)NCc3ccc4nsnc4c3)ccc21 [Example 24]
target.or.test.system: MMP-13CD (catalytic domain of collagenase 3) (Homo sapiens, UniProt P45452)
unit.abbreviation: µM
number: 0.125

1. COc1ccc(CNC(=O)c2ccc3c(c2)S(=O)(=O)N(Cc2ccc(CC(=O)O)cc2)C(=O)N3C)cc1 [Example 30]
2. COc1ccc(CNC(=O)c2ccc3c(c2)S(=O)(=O)N(Cc2ccc(C(N)=O)cc2)C(=O)N3C)cc1 [Example 14]
3. CCC#CCN1C(=O)N(C)c2ccc(C(=O)NCc3ccc(OC)cc3)cc2S1(=O)=O [Example 35]
Inquiry: Ordering: ascending IC50. The labels, placed in the requested order, form the answer.
Reply text: 1, 2, 3
(1: 0.0355 µM, 2: 0.155 µM, 3: 1.4 µM)

* * *

- target.or.test.system: MMP-3CD (catalytic domain of stromelysin-1) (Homo sapiens, UniProt P08254)
- Sequence (P08254 100-272 limits assumed): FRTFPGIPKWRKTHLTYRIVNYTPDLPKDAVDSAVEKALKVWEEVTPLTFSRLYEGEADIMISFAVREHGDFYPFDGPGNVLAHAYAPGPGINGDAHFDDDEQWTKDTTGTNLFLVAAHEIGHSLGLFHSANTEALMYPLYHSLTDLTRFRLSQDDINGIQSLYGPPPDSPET
- protocol.description: Thiopeptolide hydrolysis assay, MMP-3CD
- Type: biochemical
- experimental.setup: Table 2; thiopeptolide substrate, MES buffer pH 6.0; read-out: IC50 (μM) Versus Certain MMPs: MMP03 (CD)
recorded.endpoint: IC50 (µM)

given.smiles: COc1ccc(CNC(=O)c2ccc3c(c2)S(=O)(=O)N(Cc2ccc(C#N)cc2)C(=O)N3C)cc1
recorded.endpoint: IC50
unit.abbreviation: µM
number: 9.4

I. COc1ccc(CNC(=O)c2ccc3c(c2)S(=O)(=O)N(Cc2ccc(-c4nn[nH]n4)cc2)C(=O)N3C)cc1
II. CNS(=O)(=O)c1ccc(CN2C(=O)N(C)c3ccc(C(=O)NCc4ccc(OC)cc4)cc3S2(=O)=O)cc1
Inquiry: Param metric = IC50; output whichever of I , II has the minimum value. Your answer should be the label of the entry you select.
Reply text: II
(II: 10 µM, I: 15 µM)

* * *

- target.or.test.system: MMP-7FL (full-length matrilysin) (Homo sapiens, UniProt P09237)
- Sequence (P09237 95-267, species assumed): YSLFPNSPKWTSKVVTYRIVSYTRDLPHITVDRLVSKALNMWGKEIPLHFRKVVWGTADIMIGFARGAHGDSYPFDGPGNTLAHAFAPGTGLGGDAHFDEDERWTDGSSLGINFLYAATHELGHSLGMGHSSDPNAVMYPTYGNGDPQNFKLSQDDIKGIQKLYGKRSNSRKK
- protocol.description: Thiopeptolide hydrolysis assay, MMP-7FL
- Format: biochemical
- experimental.setup: Table 1; thiopeptolide substrate, HEPES pH 7.0; read-out: MMP07 (FL) IC50
recorded.endpoint: IC50 (µM)
Report only the number, with the unit µM understood.

Inquiry: Give IC50 (MMP-7FL (full-length matrilysin) (Homo sapiens, UniProt P09237)) of the following molecule: CN1C(=O)N(Cc2ccccc2)S(=O)(=O)c2cc(C(=O)OCc3ccccc3)ccc21 [Example 1]
Reply text: 44

* * *

- target.or.test.system: MMP-9FL (full-length Gelatinase B) (Homo sapiens, UniProt P14780)
- Sequence (P14780 94-707, species assumed): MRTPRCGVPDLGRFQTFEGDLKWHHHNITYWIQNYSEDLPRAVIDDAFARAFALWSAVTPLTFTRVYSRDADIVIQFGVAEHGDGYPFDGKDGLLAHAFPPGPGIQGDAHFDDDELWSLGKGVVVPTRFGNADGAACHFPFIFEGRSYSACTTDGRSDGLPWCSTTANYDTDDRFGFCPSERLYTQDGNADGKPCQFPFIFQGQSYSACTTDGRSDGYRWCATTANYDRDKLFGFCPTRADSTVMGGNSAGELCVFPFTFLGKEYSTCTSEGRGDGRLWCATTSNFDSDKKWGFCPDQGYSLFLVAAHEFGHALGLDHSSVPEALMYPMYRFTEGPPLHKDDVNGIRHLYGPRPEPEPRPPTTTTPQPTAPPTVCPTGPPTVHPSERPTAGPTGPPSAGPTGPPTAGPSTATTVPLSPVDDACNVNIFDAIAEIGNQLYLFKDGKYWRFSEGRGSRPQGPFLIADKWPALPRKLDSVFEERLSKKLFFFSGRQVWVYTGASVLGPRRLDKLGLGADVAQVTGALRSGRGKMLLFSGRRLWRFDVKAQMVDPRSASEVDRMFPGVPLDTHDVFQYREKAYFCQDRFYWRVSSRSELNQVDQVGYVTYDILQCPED
- protocol.description: Thiopeptolide hydrolysis assay, MMP-9FL
- Type: biochemical
- experimental.setup: Table 2; thiopeptolide substrate, HEPES pH 7.0; read-out: IC50 (μM) Versus Certain MMPs: MMP09 (FL)
IC50 by entry:

Please review the entries below; each comes with its answer.
molecule: COc1ccc(CNC(=O)c2ccc3c(c2)S(=O)(=O)N(Cc2ccc(S(=O)(=O)N4CCOCC4)cc2)C(=O)N3C)cc1 [Example 19]
target.or.test.system: MMP-9FL (full-length Gelatinase B) (Homo sapiens, UniProt P14780)
IC50: > 30 µM
--
molecule: COc1ccc(CNC(=O)c2ccc3c(c2)S(=O)(=O)N(Cc2ccc(-c4nn[nH]n4)cc2)C(=O)N3C)cc1 [Example 32]
target.or.test.system: MMP-9FL (full-length Gelatinase B) (Homo sapiens, UniProt P14780)
IC50: > 100 µM
--
molecule: COc1ccc(CNC(=O)c2ccc3c(c2)S(=O)(=O)N(Cc2ccc4ccccc4c2)C(=O)N3C)cc1 [Example 22]
target.or.test.system: MMP-9FL (full-length Gelatinase B) (Homo sapiens, UniProt P14780)
IC50: > 30 µM

// next entry
Inquiry: If you can, please state the reported IC50 value of COc1ccc(CNC(=O)c2ccc3c(c2)S(=O)(=O)N(Cc2ccc(C(=O)N4CCCCC4)cc2)C(=O)N3C)cc1 [Example 27] .
Reply text: > 30 µM

* * *

Listed compounds paired with reported IC50
- target.or.test.system: MMP-9FL (full-length Gelatinase B) (Homo sapiens, UniProt P14780)
- protocol.description: Thiopeptolide hydrolysis assay, MMP-9FL
- Type: biochemical
- experimental.setup: Table 2; thiopeptolide substrate, HEPES pH 7.0; read-out: IC50 (μM) Versus Certain MMPs: MMP09 (FL)

Inquiry: Which value of IC50 has been reported for COc1ccc(CNC(=O)c2ccc3c(c2)S(=O)(=O)N(Cc2ccc(C#N)cc2)C(=O)N3C)cc1 [Example 29] in the records?
Reply text: > 30 µM

Inquiry: For COc1ccc(CNC(=O)c2ccc3c(c2)S(=O)(=O)N(Cc2ccc(C(N)=O)cc2)C(=O)N3C)cc1 [Example 14] then?
Reply text: > 30 µM

Inquiry: What would you report for COc1cccc(CNC(=O)c2ccc3c(c2)S(=O)(=O)N(Cc2ccc(C(=O)O)cc2)C(=O)N3C)c1 [Example 31] ?
Reply text: > 100 µM

Inquiry: Param item: COc1ccc(CNC(=O)c2ccc3c(c2)S(=O)(=O)N(Cc2ccccc2)C(=O)N3C)cc1 [Example 5]
Reply text: > 30 µM

Inquiry: For CN1C(=O)N(Cc2ccccc2)S(=O)(=O)c2cc(C(=O)NCc3ccc4nsnc4c3)ccc21 [Example 24] then?
Reply text: > 30 µM

Inquiry: Item: COc1ccc(CNC(=O)c2ccc3c(c2)S(=O)(=O)N(Cc2ccc(C(=O)O)cc2)C(=O)N3C)cc1 [Example 13]
Reply text: > 100 µM

Inquiry: Queued: COC(=O)c1ccc(CN2C(=O)N(C)c3ccc(C(=O)NCc4ccc(F)cc4)cc3S2(=O)=O)cc1 [Example 20]
Reply text: 10 µM
